System: mast cell degranulation
measurement_description: Serotonin release assay (inhibition of mast cell degranulation)
Type: cell-based
measurement_conditions: 50 μM; Table 4; average of duplicates
Label rule, in plain words: AVERAGE % RELEASE of 20% and up is label 1, under 20% is label 0.

// known answers, use as guide
>>> category("CC(C)=CCCC(C)=CCCC(C)=CCn1c(=O)c2c(ncn2C)n(C)c1=O [CT2544, 1-(Farnesyl)-3,7-dimethylxanthine]")
"label 0"
>>> category("CC(C)=CCC[C@@H](C)CCn1c(=O)c2c(ncn2C)n(C)c1=O [CT1596R]")
"label 1"
>>> category("C=CCCCCCCCCCn1c(=O)c2c(ncn2C)n(C)c1=O [CT2501, 1-(10-undecenyl)-3,7-dimethylxanthine]")
"label 0"

Alright, here's another compound for you.
In: Determine whether measured AVERAGE % RELEASE meets or exceeds 20% for C=CCCCCCCCCCn1c(=O)c(C)cn(C)c1=O [CT1931, 3-(10-undecenyl)-1-methylthymine]
Out: label 0

* * *

Tested on: mast cell degranulation
measurement_description: Serotonin release assay (inhibition of mast cell degranulation)
Type: cell-based
measurement_conditions: 50 μM; Table 4; average of duplicates
Label rule, in plain words: AVERAGE % RELEASE of 20% and up is y, under 20% is n.

// known answers, use as guide
>>> category("CC(C)=CCC[C@H](C)CCCn1c(=O)c2c(ncn2C)n(C)c1=O [CT2536S]")
"n"
>>> category("C=CCCCCCCCn1c(=O)c2c(ncn2COC(=O)C(C)(C)C)n(C)c1=O")
"n"
>>> category("C=CCCCCN1C(=O)c2ccccc2C1=O [CT1101, N(5-hexenyl)phthalimide]")
"n"
>>> category("C=CCCCCCCCN1C(=O)c2ccccc2C1=O [CT1102, N(8-nonenyl)phthalimide]")
"n"
>>> category("C=CCCCCCCCCCN1C(=O)CCN(C)C1=O [CT1819, 3-(10-undecenyl)-1-methyldihydrouracil]")
"y"

Alright, here's another compound for you.
In: Determine whether measured AVERAGE % RELEASE meets or exceeds 20% for CC/C=C\CCCCCn1c(=O)c(C)cn(C)c1=O [CT1916, 3-(6-cis-nonenyl)-1-methylthymine]
Out: y

* * *

# Lookup of reported pIC50 keyed by entry
Test system: CMV promoter activity in transformed (adenovirus) cells
measurement_description: CMV promoter assay (gene transcription and translation; cytotoxicity in transformed cells)
Assay type: cell-based
pIC50: −log10 of the molar value.

>>> experimental_result("C/C=C/CCCn1c(=O)c2c(ncn2C)n(C)c1=O [CT1581, 1-(trans-4-Hexenyl)-3,7-dimethylxanthine]")
"< 3.30"
>>> experimental_result("C=CC(O)CCCCCn1c(=O)c2c(ncn2C)n(C)c1=O (stereo not shown) [CT2508]")
"< 3.30"

In: So what's the measured pIC50 for this one? C=CCCCn1c(=O)c2c(ncn2C)n(C)c1=O [CT1575, 1-(4-pentenyl)-3,7-dimethylxanthine]
Out: < 3.30

In: So what's the measured pIC50 for this one? C=CCCn1c(=O)c2c(ncn2C)n(C)c1=O [CT2503, 1-(3-butenyl)-3,7-dimethylxanthine]
Out: < 3.30

In: So what's the measured pIC50 for this one? C=CCCCCn1c(=O)c2c(ncn2C)n(C)c1=O [CT1539, 1-(5-hexenyl)-3,7-dimethylxanthine]
Out: < 3.30

In: So what's the measured pIC50 for this one? C=CCCCCn1c(=O)c(C)cn(C)c1=O [CT1905, 3-(5-hexenyl)-1-methylthymine]
Out: < 3.30

In: So what's the measured pIC50 for this one? C=CCCCCCn1c(=O)c2c(ncn2C)n(C)c1=O [CT1534, 1-(6-heptenyl)-3,7-dimethylxanthine]
Out: < 3.30
